- test details: amyloid nucleation score (Sup35N fusion, yeast selection) (log enrichment); library NNK3; higher = more nucleation; inactive = no reads after selection;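 note: zero at mode of non-aggregating sequences after 7 days selection at 30°C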
metric name: amyloid nucleation score

substance | metric name | result
YKYVFHPIFFDQGT | amyloid nucleation score | inactive
WVSFKDLSELCLGCFRMPRF | amyloid nucleation score | inactive
VILLSLAY | amyloid nucleation score | inactive
RRSYTFRSVGKEWNIAYWYI | amyloid nucleation score | inactive
FRPGLYSYMPSC | amyloid nucleation score | -0.451
PIFFCFNDVWTGNVVLDAMG | amyloid nucleation score | 3.05
RAGVKNG | amyloid nucleation score | inactive
PLYQSYYHLEPSCDWCYSSR | amyloid nucleation score | -0.144
PNGSYAKQLLVSIL | amyloid nucleation score | inactive
VLLPAGRIR | amyloid nucleation score | inactive
LRKGVRLLFSHHVIIK | amyloid nucleation score | inactive
HGIRYTCWRWECSNVGGSSS | amyloid nucleation score | inactive
LYSGFRGMPKYTDKNCMGRV | amyloid nucleation score | inactive
IRLYFQYFLLSG | amyloid nucleation score | 2.35
ILFNENITKMSLFNCDKFIC | amyloid nucleation score | 1.1
CSIVVNLMYLLVDACMGPKG | amyloid nucleation score | inactive
SACSVIFTEYINVSLLLSST | amyloid nucleation score | 0.251
TRGRNTKDGVDGDLPADVLV | amyloid nucleation score | inactive
KNGIITLSSIT | amyloid nucleation score | inactive
VKGMKCWCQVRSESGLVSNA | amyloid nucleation score | inactive
FTYGMSSVFVGHF | amyloid nucleation score | inactive
PHMNWSYVPQF | amyloid nucleation score | inactive
KSFWVHMTGAFVCARYWCLP | amyloid nucleation score | 0.97
NLHAEWMDGSTGRKIAWNNG | amyloid nucleation score | inactive
YNCGHLNYGIVNFLFYVWLI | amyloid nucleation score | inactive
RKNVELANPLFTSPWLNIMY | amyloid nucleation score | inactive
HVSVFMCLCTVDTR | amyloid nucleation score | 1.33
TATYKSYCTL | amyloid nucleation score | inactive
WLGRTATQFNIC | amyloid nucleation score | inactive
FFFTATLNQLSYTYIFSKLA | amyloid nucleation score | inactive
FWGWLARTNLKILSILFNLI | amyloid nucleation score | inactive
RISSCSYHRVRVHVDTWAHV | amyloid nucleation score | inactive
HLWVNRDQWLVVLTEFSRFW | amyloid nucleation score | inactive
HSIHSDNRVLWLFDWSLSSR | amyloid nucleation score | inactive
PDRMIGGLSFRKFDISCPYA | amyloid nucleation score | inactive
WYRFPCFFLYCDAWMILNFA | amyloid nucleation score | inactive
MTFRFNVMLVCLWRATNCFL | amyloid nucleation score | inactive
